# Test system: NCI-H661
# MEASUREMENT NOTES: Antiproliferative activity against human NCI-H661 cells after 72 hrs
# Type: functional, cell-based
# MEASUREMENT CONDITIONS: NCI-H661, 72 h
ASSAY READOUT: IC50

Could you share which IC50 value was measured for CNC(=O)c1ccc(-c2cc(F)c3ncc(Cc4ccc5ncccc5c4)n3c2)cc1F ?
> 50 µM

* * *

# MEASUREMENT NOTES: Antiproliferative activity against human BGC823 cells after 72 hrs
# Format: functional, cell-based
# MEASUREMENT CONDITIONS: BGC-823, 72 h
ASSAY READOUT: IC50

Data request, read-out IC50, for CNC(=O)c1ccc(-c2cc(F)c3ncc(Cc4ccc5ncccc5c4)n3c2)cc1F
> 50 µM

* * *

# ASSAYED TARGET: Tyrosine-protein kinase Mer (Homo sapiens, UniProt Q12866)
# Sequence (Q12866 whole entry): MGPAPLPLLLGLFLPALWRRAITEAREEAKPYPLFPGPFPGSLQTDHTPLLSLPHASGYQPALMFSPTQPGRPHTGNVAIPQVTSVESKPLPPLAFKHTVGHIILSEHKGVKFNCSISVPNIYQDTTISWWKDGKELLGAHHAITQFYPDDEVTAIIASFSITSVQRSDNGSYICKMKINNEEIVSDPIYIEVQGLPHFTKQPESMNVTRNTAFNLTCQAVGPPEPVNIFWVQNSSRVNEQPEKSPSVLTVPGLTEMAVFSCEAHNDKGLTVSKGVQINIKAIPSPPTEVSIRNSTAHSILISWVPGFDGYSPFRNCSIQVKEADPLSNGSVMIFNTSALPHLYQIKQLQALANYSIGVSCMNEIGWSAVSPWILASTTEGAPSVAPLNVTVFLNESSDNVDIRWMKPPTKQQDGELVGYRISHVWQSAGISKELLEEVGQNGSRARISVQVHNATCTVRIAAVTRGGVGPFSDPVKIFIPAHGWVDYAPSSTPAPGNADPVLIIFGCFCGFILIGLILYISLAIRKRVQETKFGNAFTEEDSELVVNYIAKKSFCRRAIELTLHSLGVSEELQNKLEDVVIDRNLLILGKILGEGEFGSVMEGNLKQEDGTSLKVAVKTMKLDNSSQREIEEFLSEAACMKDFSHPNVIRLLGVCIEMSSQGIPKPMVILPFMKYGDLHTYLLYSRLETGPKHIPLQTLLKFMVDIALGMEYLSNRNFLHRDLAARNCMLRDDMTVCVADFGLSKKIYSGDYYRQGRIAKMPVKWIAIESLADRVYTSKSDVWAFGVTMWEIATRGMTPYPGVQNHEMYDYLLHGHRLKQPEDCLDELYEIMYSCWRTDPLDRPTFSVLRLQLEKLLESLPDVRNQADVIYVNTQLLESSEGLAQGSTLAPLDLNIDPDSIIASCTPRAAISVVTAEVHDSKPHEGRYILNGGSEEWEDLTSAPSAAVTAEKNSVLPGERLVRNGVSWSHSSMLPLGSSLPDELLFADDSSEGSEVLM
# MEASUREMENT NOTES: Inhibition of Mer (unknown origin) using polu (Glu,Tyr)4:1 substrate after 30 mins incubation by multi-well spectrophotometry
pIC50: −log10 of the molar value.
ASSAY READOUT: pIC50

So what does the record say about pIC50 for CNC(=O)c1ccc(-c2cc(F)c3ncc(Cc4ccc5ncccc5c4)n3c2)cc1F ?
< 5.00

* * *

# MEASUREMENT NOTES: Antiproliferative activity against human SGC7901 cells after 72 hrs
# Format: functional, cell-based
# MEASUREMENT CONDITIONS: SGC-7901, 72 h
ASSAY READOUT: IC50

Please give the measured IC50 for this compound: CNC(=O)c1ccc(-c2cc(F)c3ncc(Cc4ccc5ncccc5c4)n3c2)cc1F
> 50 µM

* * *

# MEASUREMENT NOTES: Antiproliferative activity against human EBC1 cells after 72 hrs
# MEASUREMENT CONDITIONS: EBC-1, 72 h
Please note: IC50 exactly at 100 nM is false (0). Only values below 100 nM get true (1).

Worked examples, 6 compounds total:
{"columns": ["COMPOUND", "CLASS NAME"],
 "data": [
  ["CNC(=O)c1ccc(-c2cc(F)c3ncc(Cc4ccc5ncccc5c4)n3c2)cc1F", "true (1)"],
  ["Cn1cc(-c2ccc3nnc(C(F)(F)c4ccc5ncccc5c4)n3n2)cn1 [JNJ-38877605]", "true (1)"],
  ["O=C(NCCN1CCOCC1)c1ccc(-c2cc(F)c3ncc(Cc4ccc5ncccc5c4)n3c2)cc1F", "true (1)"],
  ["CNC(=O)c1ccc(-c2cc(F)c3ncc(Cc4ccc5ncccc5c4)n3c2)cc1OC", "true (1)"],
  ["N#Cc1ccc(-c2cc(F)c3ncc(Cc4ccc5ncccc5c4)n3c2)cn1", "false (0)"],
  ["O=C(NC1CCCNC1)c1ccc(-c2cc(F)c3ncc(Cc4ccc5ncccc5c4)n3c2)cc1F (centres undefined)", "false (0)"]
]}

Please state whether IC50 is below 100 nM for CN(C)CCNC(=O)c1ccc(-c2cc(F)c3ncc(Cc4ccc5ncccc5c4)n3c2)cc1F
true (1)

Another compound to check: Fc1cc(-c2ccsc2)cn2c(Cc3ccc4ncccc4c3)cnc12
false (0)

Again, but for N#Cc1cccc(-c2cc(F)c3ncc(Cc4ccc5ncccc5c4)n3c2)c1
false (0)

* * *

# Tested on: SNU1
# MEASUREMENT NOTES: Antiproliferative activity against human SNU1 cells after 72 hrs
# Type: functional, cell-based
# MEASUREMENT CONDITIONS: SNU1, 72 h
pIC50: −log10 of the molar value.
ASSAY READOUT: pIC50

Please give the measured pIC50 for this compound: CNC(=O)c1ccc(-c2cc(F)c3ncc(Cc4ccc5ncccc5c4)n3c2)cc1F
< 4.30

Data provenance is ChEMBL document CHEMBL3580555.
